# SYSTEM: human FXR (NR1H4) (Homo sapiens (Human), UniProt Q96RI1)
# Sequence (Q96RI1 whole entry, the tested form may be a part): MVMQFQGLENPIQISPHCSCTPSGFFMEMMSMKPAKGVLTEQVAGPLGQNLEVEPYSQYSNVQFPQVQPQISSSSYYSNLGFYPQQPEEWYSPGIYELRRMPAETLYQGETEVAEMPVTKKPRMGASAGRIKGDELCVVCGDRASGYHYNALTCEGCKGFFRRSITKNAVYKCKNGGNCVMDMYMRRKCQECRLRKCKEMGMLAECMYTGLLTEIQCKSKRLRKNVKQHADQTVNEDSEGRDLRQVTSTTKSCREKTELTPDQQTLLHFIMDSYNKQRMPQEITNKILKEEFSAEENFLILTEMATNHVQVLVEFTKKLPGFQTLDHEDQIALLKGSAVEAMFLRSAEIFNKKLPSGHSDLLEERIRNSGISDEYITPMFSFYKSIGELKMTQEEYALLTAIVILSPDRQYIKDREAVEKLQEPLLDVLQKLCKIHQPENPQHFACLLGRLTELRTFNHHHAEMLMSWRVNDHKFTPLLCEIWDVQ
# PROTOCOL: Human FXR (NR1H4) Assay (Gal4 promoter driven luciferase reporter, Indigo Bioscience kit);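 on Efficacy (%): 100% equals the efficacy of CDCA; efficacy normalized to CDCA set as 100%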
# Type: cell-based
# TEST PARAMETERS: read-out: Efficacy (%)
Exercise: for every item that follows, state its recorded Emax.
Numbers only, in %.

> print(dat)
                           smiles.structure                                    system  u  experimental.result
1  CC[C@H]1[C@@H](O)[C@@H]2[C@H](CC[C@]3(C)[C@@H]([C@H](C)CCOC(=O)N4CCCS4(=O)=O)CC[C@@H]23)[C@@]2(C)CC[C@@H](O)C[C@@H]12  human FXR (NR1H4) (Homo sapiens (Human), UniProt Q96RI1)  %                  358
2  CC[C@H]1[C@@H](O)[C@@H]2[C@H](CC[C@]3(C)[C@@H]([C@H](C)CCOC(=O)NCc4ccccc4)CC[C@@H]23)[C@@]2(C)CC[C@@H](O)C[C@@H]12  human FXR (NR1H4) (Homo sapiens (Human), UniProt Q96RI1)  %                  305
3  CC[C@H]1[C@@H](O)[C@@H]2[C@H](CC[C@]3(C)[C@@H]([C@H](C)COC(=O)NCc4ccccc4)CC[C@@H]23)[C@@]2(C)CC[C@@H](O)C[C@@H]12  human FXR (NR1H4) (Homo sapiens (Human), UniProt Q96RI1)  %                    5

Next, consider the following molecule.
Returns the measured Emax for the input molecule. Input: `CC[C@H]1[C@@H](O)[C@@H]2[C@H](CC[C@]3(C)[C@@H]([C@H](C)CCOC(=O)NS(C)(=O)=O)CC[C@@H]23)[C@@]2(C)CC[C@@H](O)C[C@@H]12`
245

* * *

# SYSTEM: human FXR (NR1H4) (Homo sapiens (Human))
# PROTOCOL: Human FXR (NR1H4) Assay (Gal4 promoter driven luciferase reporter, Indigo Bioscience kit)
# Type: cell-based
# TEST PARAMETERS: Human FXR (NR1H4) Assay, potency ranges
MEASURED METRIC: EC50

Below, 8 compounds whose answers are already recorded.
COMPOUND	EC50
CC[C@H]1[C@@H](O)[C@@H]2[C@H](CC[C@]3(C)[C@@H]([C@H](C)CCOC(=O)N[C@@H]4CCC[C@H]4O)CC[C@@H]23)[C@@]2(C)CC[C@@H](O)C[C@@H]12 [Example 207]	100 to 1000 nM
CC[C@H]1[C@@H](O)[C@@H]2[C@H](CC[C@]3(C)[C@@H]([C@H](C)CCOC(=O)NCCc4ccccn4)CC[C@@H]23)[C@@]2(C)CC[C@@H](O)C[C@@H]12 [Example 186]	100 to 1000 nM
CC[C@H]1[C@@H](O)[C@@H]2[C@H](CC[C@]3(C)[C@@H]([C@H](C)CCOC(=O)N4CC(=O)NS4(=O)=O)CC[C@@H]23)[C@@]2(C)CC[C@@H](O)C[C@@H]12 [Example 110]	1000 to 10000 nM
CC[C@H]1[C@@H](O)[C@@H]2[C@H](CC[C@]3(C)[C@@H]([C@H](C)CCOC(=O)NC4CCC4)CC[C@@H]23)[C@@]2(C)CC[C@@H](O)C[C@@H]12 [Example 133]	< 100 nM
CC[C@H]1[C@@H](O)[C@@H]2[C@H](CC[C@]3(C)[C@@H]([C@H](C)COC(=O)NS(=O)(=O)c4ccc(-c5ccc(F)cc5)cc4)CC[C@@H]23)[C@@]2(C)CC[C@@H](O)C[C@@H]12 [Example 28]	< 100 nM
CC[C@H]1[C@@H](O)[C@@H]2[C@H](CC[C@]3(C)[C@@H]([C@H](C)COC(=O)NS(=O)(=O)c4ccc(-n5cncn5)cc4)CC[C@@H]23)[C@@]2(C)CC[C@@H](O)C[C@@H]12 [Example 44-f]	< 100 nM
CC[C@H]1[C@@H](O)[C@@H]2[C@H](CC[C@]3(C)[C@@H]([C@H](C)COC(=O)NS(=O)(=O)c4ccc(N5CCC(F)(F)CC5)cc4)CC[C@@H]23)[C@@]2(C)CC[C@@H](O)C[C@@H]12 [Example 21]	< 100 nM
CC[C@H]1[C@@H](O)[C@@H]2[C@H](CC[C@]3(C)[C@@H]([C@H](C)CCOC(=O)NS(=O)(=O)C(C)(C)C)CC[C@@H]23)[C@@]2(C)CC[C@@H](O)C[C@@H]12 [Example 48]	< 100 nM

Next, consider the following compound.
Returns the measured EC50 for the input compound. Input: CC[C@H]1[C@@H](O)[C@@H]2[C@H](CC[C@]3(C)[C@@H]([C@H](C)CCOC(=O)N4CCC(CO)CC4)CC[C@@H]23)[C@@]2(C)CC[C@@H](O)C[C@@H]12 [Example 202]
100 to 1000 nM
